Value source: paper PMC12616683

Assay remarks: FBMN analysis of short peptides in small intestine contents and serum after oral DHG
Test conditions: small intestine contents, 30 min after oral DHG, C57 mice; FBMN feature intensity, peptides smaller than 690 Da
Peptide text beside a SMILES is read from it.
Readout: Peptide signal (feature intensity) in the small intestine, 30 min

(P) Cc1cn([C@H]2C[C@H](O)[C@@H](CO)O2)c(=O)[nH]c1=O
(Q) CC(C)C(NC(=O)C(N)Cc1ccccc1)C(=O)O (stereo not drawn) [Phe-Val] (H-Phe-Val-OH; configuration not given here)
Task: Thinking about recorded Peptide signal (feature intensity) in the small intestine, 30 min values, which is higher, P or Q ? Label of pick, please.
Output: Q

(A) NC(Cc1ccccc1)C(=O)NC(Cc1ccc(O)cc1)C(=O)O (stereo not drawn) [Phe-Tyr] (H-Phe-Tyr-OH; configuration not given here)
(B) CC[C@H](C)[C@H](NC(=O)[C@@H](N)C(C)C)C(=O)N[C@@H](CCCCN)C(=O)O [Val-Ile-Lys] (H-Val-Ile-Lys-OH)
Task: Please indicate which entry, A or B , has the lower recorded Peptide signal (feature intensity) in the small intestine, 30 min value. Label of pick, please.
Output: B
(B: 0.00E+00, A: 4.42E+05)

###

Assay remarks: FBMN analysis of short peptides in small intestine contents and serum after oral DHG
Test conditions: small intestine contents, 240 min after oral DHG, C57 mice; FBMN feature intensity, peptides smaller than 690 Da
Peptide text beside a SMILES is read from it.
Readout: Peptide signal (feature intensity) in the small intestine, 240 min

Example molecules with recorded Peptide signal (feature intensity) in the small intestine, 240 min:
| Molecule | Test value |
| --- | --- |
| CC[C@H](C)[C@H](N)C(=O)N[C@@H](CC(N)=O)C(=O)O [Ile-Asn] (H-Ile-Asn-OH) | 0.00E+00 |
| CC(C)CC1NC(=O)C(Cc2ccccc2)NC1=O (centres unmarked) | 4.33E+05 |
| CSCC[C@H](N)C(=O)N[C@@H](Cc1ccccc1)C(=O)O [Met-Phe] (H-Met-Phe-OH) | 2.12E+06 |
| CC[C@H](C)[C@H](NC(=O)CN)C(=O)O [Gly-Ile] (H-Gly-Ile-OH) | 0.00E+00 |
| CC(C)[C@H](NC(=O)[C@@H]1CCC(=O)N1)C(=O)O [PyroGlu-Val] (HELM PEPTIDE1{[Glp].V}$$$$V2.0) | 1.03E+07 |

(I) CC(C)C[C@H](NC(=O)CNC(=O)[C@@H](N)CC(C)C)C(=O)O [Leu-Gly-Leu] (H-Leu-Gly-Leu-OH)
(II) NCC(=O)N[C@@H](Cc1ccc(O)cc1)C(=O)O [Gly-Tyr] (H-Gly-Tyr-OH)
(III) N[C@@H](CC(=O)O)C(=O)N[C@@H](Cc1ccccc1)C(=O)O [Asp-Phe] (H-Asp-Phe-OH)
Task: Ordering criterion: Peptide signal (feature intensity) in the small intestine, 240 min; begin with the maximum. Please reply with the labels ordered as requested. Many thanks.
Output: III, II, I

###

Test system: Glu-induced HT-22 cells
Assay remarks: Neuroprotection in Glu-injured HT-22 cells (CCK-8 cell viability)
Test conditions: 50 μM (stated for cyclo(Hyp-Ala)); 4 h pretreatment, then 20 mM Glu 24 h; model group 40.759 ± 1.939%
The following molecules are listed with their measured cell viability in Glu-injured HT-22 cells values.
// note: answer is a bare numeric in % cell viability

Example molecules with recorded cell viability in Glu-injured HT-22 cells:
| Molecule | Test value |
| --- | --- |
| CC1NC(=O)C2CC(O)CN2C1=O (centres unmarked) | 70.614 |
| O=C1N[C@@H](Cc2ccccc2)C(=O)N2C[C@@H](O)C[C@@H]12 | 60.206 |
| O=C1NCC(=O)N2CC(O)CC12 (centres unmarked) | 63.703 |
| CC[C@H](C)[C@@H]1NC(=O)[C@@H]2CCCN2C1=O | 63.104 |

Pending molecule:
Task: Entry `O=C1[C@@H]2C[C@@H](O)CN2C(=O)[C@@H]2CCCN12` has what cell viability in Glu-injured HT-22 cells?
Output: 60.071
